The origin of these recorded values is PubChem BioAssay AID2060904.

System: 349418-098-R-PDC complex spheroid viability
Test: Anticancer human tumor 349418-098-R-PDC patient-derived lung adenocarcinoma cell line growth inhibition [RAS]
Settings: second compound 0.3 µM; first compound 1 µM; active compounds read low
Parameter: viability, T/C (%)
Answers are plain numbers, in %.

Use these answered entries as a reference point.
{"columns": ["Compound", "viability, T/C (%)"],
 "data": [
  ["CC(=O)OC12COC1CC(O)C1(C)C(=O)C(O)C3=C(C)C(OC(=O)C(O)C(NC(=O)OC(C)(C)C)c4ccccc4)CC(O)(C(OC(=O)c4ccccc4)C21)C3(C)C (centres undefined) + CCn1c(-c2cccnc2C(C)OC)c2c3cc(ccc31)N1CCOC(CC(NC(=O)C(C(C)C)N(C)C(=O)C3(F)CCN(C(=O)C#CC(C)(C)N(C)C)CC3)C(=O)N3CCCC(N3)C(=O)OCC(C)(C)C2)C1", 15],
  ["CCC(CC)c1cc(NC2CCC(N)C2)n2nccc2n1 (centres undefined) + CCn1c(-c2cccnc2C(C)OC)c2c3cc(ccc31)N1CCOC(CC(NC(=O)C(C(C)C)N(C)C(=O)C3(F)CCN(C(=O)C#CC(C)(C)N(C)C)CC3)C(=O)N3CCCC(N3)C(=O)OCC(C)(C)C2)C1", 31.9],
  ["CCN1CCN(Cc2ccc(Nc3ncc(F)c(-c4cc(F)c5nc(C)n(C(C)C)c5c4)n3)nc2)CC1 + CCn1c(-c2cccnc2C(C)OC)c2c3cc(ccc31)N1CCOC(CC(NC(=O)C(C(C)C)N(C)C(=O)C3(F)CCN(C(=O)C#CC(C)(C)N(C)C)CC3)C(=O)N3CCCC(N3)C(=O)OCC(C)(C)C2)C1", 13.5]
]}

Attention now turns to another entry.
Field request: viability, T/C | item: CCN1CCN(Cc2ccc(Nc3ncc(F)c(-c4cc(F)c5nc(C)n(C(C)C)c5c4)n3)nc2)CC1 + CCn1c(-c2cc(N3CCN(C)CC3)cnc2C(C)OC)c2c3cc(ccc31)-c1csc(n1)CC(NC(=O)C1CC1C)C(=O)N1CCCC(N1)C(=O)OCC(C)(C)C2 14.6

----------
Test system: 349418-098-R-PDC complex spheroid viability
Experiment: Anticancer human tumor 349418-098-R-PDC cell line growth inhibition [RAS];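 also: spheroids exposed to compound for seven days before viability readout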
Settings: second compound 10 µM; first compound 0.01 µM; active compounds read low
# label = MET if viability, T/C < 60% else NOT MET

Some solved entries appear below for comparison.
{"columns": ["Compound", "Assigned Label"],
 "data": [
  ["CCN1CCN(Cc2ccc(Nc3ncc(F)c(-c4cc(F)c5nc(C)n(C(C)C)c5c4)n3)nc2)CC1 + C#Cc1c(F)ccc2cc(O)cc(-c3ncc4c(N5CC6CCC(C5)N6)nc(OCC56CCCN5CC(F)C6)nc4c3F)c12", "MET"],
  ["C=CC(=O)N1CCN(c2nc(OCC3CCCN3C)nc3c(F)c(-c4nc(N)cc(C)c4C(F)(F)F)c(Cl)cc23)C(C)C1 (stereo unspecified) + C#Cc1c(F)ccc2cc(O)cc(-c3ncc4c(N5CC6CCC(C5)N6)nc(OCC56CCCN5CC(F)C6)nc4c3F)c12", "NOT MET"],
  ["O=C(c1ccc(F)c(F)c1Nc1ccc(I)cc1F)N1CC(O)([C@@H]2CCCCN2)C1 + C#Cc1c(F)ccc2cc(O)cc(-c3ncc4c(N5CC6CCC(C5)N6)nc(OCC56CCCN5CC(F)C6)nc4c3F)c12", "MET"],
  ["C=CC(=O)Nc1cc(Nc2nccc(-c3cn(C)c4ccccc34)n2)c(OC)cc1N(C)CCN(C)C + C#Cc1c(F)ccc2cc(O)cc(-c3ncc4c(N5CC6CCC(C5)N6)nc(OCC56CCCN5CC(F)C6)nc4c3F)c12", "NOT MET"],
  ["Nc1ccn(C2OC(CO)C(O)C2(F)F)c(=O)n1 (stereo unspecified) + C#Cc1c(F)ccc2cc(O)cc(-c3ncc4c(N5CC6CCC(C5)N6)nc(OCC56CCCN5CC(F)C6)nc4c3F)c12", "MET"]
]}

Next up:
Consider the compound CC(C)n1nc(-c2ccc3oc(N)nc3c2)c2c(N)ncnc21 + C#Cc1c(F)ccc2cc(O)cc(-c3ncc4c(N5CC6CCC(C5)N6)nc(OCC56CCCN5CC(F)C6)nc4c3F)c12 . Is its viability, T/C strictly less than 60%? MET
